Tested on: Nucleic Acid
run description: Binding affinity to HSP90A quadruplex DNA assessed as change in melting temperature at 2 uM by FRET melting assay
Assay type: nucleic-acid assay
conditions used: Homo sapiens
metric: ΔTm (°C)
Your answer should be a plain number; it is taken to be in °C.

Below, each entry is followed by its recorded ΔTm result.
>  <line notation>
c1cc(-c2cnc(-c3ccc(CN4CCCC4)cc3)o2)cc(-c2cnc(-c3ccc(CN4CCCC4)cc3)o2)c1

>  <unit spec>
°C

>  <ΔTm>
14

$$$$
>  <line notation>
CC(C)N(Cc1ccc(-c2ncc(-c3cccc(-c4cnc(-c5ccc(CN(C(C)C)C(C)C)cc5)o4)c3)o2)cc1)C(C)C

>  <unit spec>
°C

>  <ΔTm>
8

$$$$
>  <line notation>
c1cc(-c2cnc(-c3ccc(OCCCN4CCCC4)cc3)o2)cc(-c2cnc(-c3ccc(OCCCN4CCCC4)cc3)o2)c1

>  <unit spec>
°C

>  <ΔTm>
14

$$$$

The compound listed as "c1cc(-c2cnc(-c3ccc(OCCCCN4CCCC4)cc3)o2)cc(-c2cnc(-c3ccc(OCCCCN4CCCC4)cc3)o2)c1" shows ΔTm equal to 19
